FYI, the data here is from ChEMBL document CHEMBL4689842.

# System: U2OS
# test: Incucyte cell viability with U2OS; note: filed as whole numbers so only -1 and 0 and 1 occur
# Assay type: toxicity, cell-based
# experimental context: human, 6 h, 10 µM, compound concentration 10 uM, replicate number 2, timepoint 6 hours
Provide the recorded Growth Rate for the entries that follow.
Numbers only.

[[record]]
compound = "CN1C2CCC1CC(OC(c1ccc(F)cc1)c1ccc(F)cc1)C2.Cl (centres undefined)"
observed = 0


Provide reported Growth Rate for each item, in the same order as listed.
1. COC1CCN(c2cccc(-c3cc(NC(C)=O)nc(-n4nc(C)cc4C)n3)n2)CC1
2. CCOC(=O)c1c(C)[nH]c2ccc3c(c12)CN1CCc2cc(OC)ccc2C1O3 (centres undefined)
3. CNC[C@H](O)c1cccc(O)c1 [PHENYLEPHRINE]
4. O=C(c1ccc(C(=O)N2CCC(N3CCCC3)CC2)c(Nc2ccccc2)c1)N1CCC(N2CCCC2)CC1
5. Cc1cc([C@@H](C)Nc2cccc(-c3cc(C)c(C(=O)N[C@@H](C)C(=O)O)c(C)c3)c2)ccc1Cl
6. CCCCCNC(=O)NS(=O)(=O)c1cc([N+](=O)[O-])ccc1NC1CCCCC1
7. COc1cc(OC)cc(-c2noc(N3CCN(C)C4(CCN(c5ccnc(C)c5)CC4)C3)n2)c1

[0, 1, 0, 1, 0, 1, 1]

Could you share what Growth Rate was measured for OCCn1cc(-c2cnc3nnn(Cc4ccc5ncccc5c4)c3n2)cn1 [PF-04217903] , tested on U2OS?
0
